Target Or System: GLP-1 receptor (human (printed as hGLP1R), UniProt P43220 24-463)
Protocol Description: cell-based or functional assay
Starred links: 1 amine or outer side, 2 acyl side, 3 side chain; linkers in the order of their positions; H or OH if unused. Non-standard residues stand in square brackets, D forms with d. Groups on a side chain read outwards from the residue. No end group written: not given here. *: point of attachment. C20 diacid = O=C(O)CCCCCCCCCCCCCCCCCCC(=O)*; C18 diacid = O=C(O)CCCCCCCCCCCCCCCCC(=O)*; γGlu = O=C(O)[C@H](CCC(=O)[*:2])N[*:1]; εLys = N[C@@H](CCCCN[*:1])C(=O)[*:2]; AEEA = NCCOCCOCC(=O)O; Aib = CC(C)(N)C(=O)O
Form field: EC50 hGLP1R 0.5% hP (CreLuc) (one value per entry).

{"columns": ["Binder", "EC50 hGLP1R 0.5% hP (CreLuc), nM"],
 "data": [
  ["YXEGTFTSDYSIXLEKQAQXAFVEWLIKGGPSSGASLLHYYNWLTRQRY (Aib at 2, 13, 20; K28 side chain carries C20DA-gGlu-gGlu-gGlu-gGlu-gGlu-gGlu-eLys; C-terminal amide) [Compound 210]", 0.19],
  ["Y[Aib]EGTFTSDYSI[Aib]LEKQAQ[Aib]AFVQWLIKGGPSEGASLRHYYNWLTRQRY-NH2 (not fully specified (residue 28); also: TFA salt) [Compound 243]", 0.12],
  ["Y[Aib]EGTFTSDYSI[Aib]LEKQAQ[Aib]AFIEWLIK([γGlu-γGlu-γGlu-γGlu-C18 diacid])GGPSEGASLRHYYNWLTRQRY-NH2 (also: TFA salt) [Compound 247]", 0.11],
  ["Y[Aib]EGTFTSDYSI[Aib]LEKQAQ[Aib]AFIEWLIK([AEEA-AEEA-γGlu-γGlu-γGlu-γGlu-C20 diacid])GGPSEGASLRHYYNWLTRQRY-NH2 (also: TFA salt) [Compound 231]", 0.14],
  ["Y[Aib]EGTFTSDYSI[Aib]LEKQAE[Aib]AFVEWLIK([AEEA-AEEA-γGlu-γGlu-γGlu-γGlu-C18 diacid])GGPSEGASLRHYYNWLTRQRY-NH2 (also: TFA salt) [Compound 251]", 0.49],
  ["Y[Aib]EGTFTSDYSI[Aib]LEKQAQ[Aib]AFVEWLIKGGPSYYASLRHYYNWLTRQRY-NH2 (not fully specified (residue 28); also: TFA salt) [Compound 203]", 0.33],
  ["YXEGTFTSDYSIXLEKQAQXAFVQWLIKGGPSEGASLRHYYNWLTRXRY (Aib at 2, 13, 20; bHGln (beta-homo-L-glutamine) at 47; K28 side chain carries C20DA-gGlu-gGlu-gGlu-gGlu-gGlu-gGlu-eLys; C-terminal amide) [Compound 186]", 0.11],
  ["Y[Aib]EGTFTSDYSI[Aib]LEKQAQ[Aib]AFVEWLIK([εLys-γGlu-γGlu-γGlu-γGlu-γGlu-γGlu-γGlu-C20 diacid])GGPSSGASLRHYYNWLTRQRY-NH2 (also: TFA salt) [Compound 225]", 0.12],
  ["YXEGTFTSDYSIXLEKQAQXAFVEWLIKGGPSEGVSLRHYYNWLTRQRY (Aib at 2, 13, 20; K28 side chain carries C20DA-gGlu-gGlu-gGlu-gGlu-gGlu-gGlu-eLys; C-terminal amide) [Compound 241]", 0.77]
]}

Reference source: patent US20240247080A1
